- systemName: T1, thermostable variant of Streptomyces mobaraensis transglutaminase (Streptomyces mobaraensis, UniProt P81453 79-407)
- T1 sequence: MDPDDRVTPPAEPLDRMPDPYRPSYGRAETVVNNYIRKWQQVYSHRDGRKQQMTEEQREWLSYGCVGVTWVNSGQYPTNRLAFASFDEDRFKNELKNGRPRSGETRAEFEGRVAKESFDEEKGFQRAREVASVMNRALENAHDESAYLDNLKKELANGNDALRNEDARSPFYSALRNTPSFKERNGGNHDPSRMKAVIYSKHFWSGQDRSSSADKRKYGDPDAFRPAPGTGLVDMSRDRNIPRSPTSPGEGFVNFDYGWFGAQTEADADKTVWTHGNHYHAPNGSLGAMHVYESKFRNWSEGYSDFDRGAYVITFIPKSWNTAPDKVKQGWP
- experimentalDetails: cell-based or functional assay
Listing of recorded Improvement in pH responsiveness of inhibitory peptide relative to WT by entry.
resultType: Improvement in pH responsiveness of inhibitory peptide relative to WT

>  <binder>
MDNGAGEETKSYAEDYRLTADDVANINALNESAPAASSAGPSFRAP [pro-peptide variant T15D]

>  <obsValue>
> 1.2 fold

$$$$
>  <binder>
MDNGAGEETKSYARTYRLTADDVANINALNESAPAASSAGPSFRAP [pro-peptide variant E14R]

>  <obsValue>
> 1.2 fold

$$$$
>  <binder>
MDNGAGERTKSYAETYRLTADDVANINALNESAPAASSAGPSFRAP [pro-peptide variant E8R]

>  <obsValue>
> 1.2 fold

$$$$
>  <binder>
MDNGAGEETKSYAETYRLTADDVANINALNESAPAASRAGPSFRAP [pro-peptide variant S38R]

>  <obsValue>
> 1.2 fold

$$$$
>  <binder>
MDNGAGEETKAYAETYRLTADDVANINALNESAPAASSAGPSFRAP [pro-peptide variant S11A]

>  <obsValue>
> 1.2 fold

$$$$
>  <binder>
MDNGAGEETKSYAETYRLTADDVANINALNESAPAASSAGPSFRA [pro-peptide truncation variant ΔP46]

>  <obsValue>
> 1.2 fold

$$$$
